I'd be grateful if you could share measured Kd for these entries.
# measurement_target: T1, Human VSIG4-L-His (human, UniProt Q9Y279 20-283)
# T1 construct: long isoform ECD with His tag; also called hVSIG4-L
# T1 sequence: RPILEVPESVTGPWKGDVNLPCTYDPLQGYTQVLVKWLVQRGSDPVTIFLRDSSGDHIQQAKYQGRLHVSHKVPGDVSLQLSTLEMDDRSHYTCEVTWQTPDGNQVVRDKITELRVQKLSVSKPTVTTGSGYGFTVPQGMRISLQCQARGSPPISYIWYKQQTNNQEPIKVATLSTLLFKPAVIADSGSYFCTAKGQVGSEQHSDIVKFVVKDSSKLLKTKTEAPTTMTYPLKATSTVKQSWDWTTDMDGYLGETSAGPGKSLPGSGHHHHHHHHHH
# experiment_summary: BLI (Octet), IgG on AHC sensor, antigen 100 nM
Response body: numeric value in nM, unit text excluded.

Requested read-out: Kd. Entry: 12A08 mouse/human chimeric IgG4 (S228P) kappa (antibody, V domains shown) VH: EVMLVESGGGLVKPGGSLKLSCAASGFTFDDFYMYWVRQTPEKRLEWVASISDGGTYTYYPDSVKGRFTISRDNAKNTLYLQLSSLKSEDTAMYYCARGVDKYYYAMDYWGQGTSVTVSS VL: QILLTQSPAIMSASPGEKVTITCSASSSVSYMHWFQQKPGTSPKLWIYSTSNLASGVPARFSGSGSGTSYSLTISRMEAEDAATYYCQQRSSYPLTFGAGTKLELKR 20.6

Report Kd for 16E10 mouse/human chimeric IgG4 (S228P) kappa (antibody, V domains shown) VH: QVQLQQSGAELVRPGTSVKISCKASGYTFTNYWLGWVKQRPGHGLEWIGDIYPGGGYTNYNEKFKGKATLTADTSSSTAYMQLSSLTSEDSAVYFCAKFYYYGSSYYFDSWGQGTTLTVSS VL: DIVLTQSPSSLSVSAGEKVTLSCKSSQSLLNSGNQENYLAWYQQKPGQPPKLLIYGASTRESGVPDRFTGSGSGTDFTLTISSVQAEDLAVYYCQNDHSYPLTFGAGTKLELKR please. 68.5

# get_value(readout='Kd', item= 12A12 mouse/human chimeric IgG4 (S228P) kappa (antibody, V domains shown) VH: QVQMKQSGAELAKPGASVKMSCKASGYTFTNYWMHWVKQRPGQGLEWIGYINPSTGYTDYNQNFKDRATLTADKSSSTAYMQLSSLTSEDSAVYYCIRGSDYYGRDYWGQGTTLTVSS VL: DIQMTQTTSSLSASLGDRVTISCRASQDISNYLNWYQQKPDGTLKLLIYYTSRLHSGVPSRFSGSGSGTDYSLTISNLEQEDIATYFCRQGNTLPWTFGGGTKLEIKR ) 19.1

Endpoint output: Kd of 14C05 mouse/human chimeric IgG4 (S228P) kappa (antibody, V domains shown) VH: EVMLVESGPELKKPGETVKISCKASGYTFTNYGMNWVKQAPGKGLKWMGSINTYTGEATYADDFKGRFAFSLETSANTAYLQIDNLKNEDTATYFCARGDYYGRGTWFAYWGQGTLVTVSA VL: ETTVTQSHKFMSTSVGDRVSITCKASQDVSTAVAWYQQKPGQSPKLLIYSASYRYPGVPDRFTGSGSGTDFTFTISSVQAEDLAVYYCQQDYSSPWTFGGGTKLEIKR . Value? 3.46

For the binder 15C03 mouse/human chimeric IgG4 (S228P) kappa (antibody, V domains shown) VH: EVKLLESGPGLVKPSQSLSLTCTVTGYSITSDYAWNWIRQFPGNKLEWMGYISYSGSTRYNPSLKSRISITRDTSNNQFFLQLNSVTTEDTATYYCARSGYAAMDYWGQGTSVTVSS VL: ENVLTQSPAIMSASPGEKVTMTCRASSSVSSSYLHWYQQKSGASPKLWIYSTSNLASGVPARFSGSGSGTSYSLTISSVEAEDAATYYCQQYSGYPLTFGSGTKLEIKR , what Kd is on record? 32.1
